EXPERIMENT NOTES: Caco-2 bidirectional permeability test
TEST PARAMETERS: human, Caco-2
MEASURED QUANTITY: Papp B→A at 90 min, 10 µM (×10⁻⁶ cm/s)

Use the examples below as a reference point.
O=C(Nc1ccnc(C(F)(F)F)c1)c1cnn(-c2ccc3c4c(cccc24)C(=O)N3)c1C1CC1 [Example 55]
4.08
O=C(Nc1cnc(-n2nccn2)c(Cl)c1)c1cnn(-c2ccc3c4c(cccc24)C(=O)N3)c1C(F)(F)F [Example 5]
7.03

1 = O=C(Nc1cc(Cl)n2ncc(Cl)c2c1)c1cnn(-c2ccc3c4c(cccc24)C(=O)N3)c1C(F)(F)F [Example 13]
2 = O=C(Nc1ccc(-n2nccn2)c(Cl)c1)c1cnn(-c2ccc3c4c(cccc24)C(=O)N3)c1C(F)(F)F [Example 53]
From the recorded data, which exceeds the other in Papp B→A at 90 min, 10 µM: 1 or 2 ? API: response body contains the label of the selected item. 1

###

SYSTEM TESTED: Recombinant human MALT1/MLT protein (Homo sapiens (Human), UniProt Q9UDY8)
EXPERIMENT NOTES: Inhibitory effect on MALT1 enzyme activity (Ac-LRSR-AMC substrate, fluorescence 460 nm)
TEST PARAMETERS: 10 nM FL MALT1, Ac-LRSR-AMC substrate, 50 min pre-incubation, 4 h reaction
pIC50: −log10 of the molar value.
MEASURED QUANTITY: pIC50

Use the examples below as a reference point.
O=C(Nc1ccnc(C(F)(F)F)c1)c1cnn(-c2ccc3c4c(cccc24)C(=O)N3)c1C1CC1 [Example 55]
6.77
O=C(Nc1ccnc(C(F)(F)F)c1)c1cnn(-c2ccc3c4c(cccc24)C(=O)N3)c1C(F)(F)F [Example 27]
6.79
O=C(Nc1ccc(-n2nccn2)c(Cl)c1)c1cnn(-c2ccc3c4c(cccc24)C(=O)N3)c1C(F)(F)F [Example 53]
7.60
O=C(Nc1ccc(-n2nccn2)c(C(F)(F)F)c1)c1cnn(-c2ccc3c4c(cccc24)C(=O)N3)c1C(F)(F)F [Example 50]
7.41
O=C(Nc1cnc(-n2nccn2)c(C(F)(F)F)c1)c1cnn(-c2cnc3c4c(cccc24)C(=O)N3)c1C(F)(F)F [Example 68]
7.29
O=C(Nc1cnc(-n2nccn2)c(C(F)(F)F)c1)c1cnn(-c2ccc3c4c(cccc24)C(=O)N3)c1C1CC1 [Example 56]
7.51

A = O=C(Nc1cnc(-n2nccn2)c(C(F)F)c1)c1cnn(-c2ccc3c4c(cccc24)C(=O)N3)c1C(F)(F)F [Example 49]
B = O=C(Nc1cnc(-n2nccn2)c(Cl)c1)c1cnn(-c2ccc3c4c(cccc24)C(=O)N3)c1C(F)F [Example 67]
Smaller pIC50 value? Options are A and B API: response body contains the label of the selected item. B
(B: 7.32, A: 7.55)

###

SYSTEM TESTED: MALT1 protease activity in TMD8 cells (substrate BCL-10) (Homo sapiens (Human), UniProt Q9UDY8)
Sequence (Q9UDY8 whole entry): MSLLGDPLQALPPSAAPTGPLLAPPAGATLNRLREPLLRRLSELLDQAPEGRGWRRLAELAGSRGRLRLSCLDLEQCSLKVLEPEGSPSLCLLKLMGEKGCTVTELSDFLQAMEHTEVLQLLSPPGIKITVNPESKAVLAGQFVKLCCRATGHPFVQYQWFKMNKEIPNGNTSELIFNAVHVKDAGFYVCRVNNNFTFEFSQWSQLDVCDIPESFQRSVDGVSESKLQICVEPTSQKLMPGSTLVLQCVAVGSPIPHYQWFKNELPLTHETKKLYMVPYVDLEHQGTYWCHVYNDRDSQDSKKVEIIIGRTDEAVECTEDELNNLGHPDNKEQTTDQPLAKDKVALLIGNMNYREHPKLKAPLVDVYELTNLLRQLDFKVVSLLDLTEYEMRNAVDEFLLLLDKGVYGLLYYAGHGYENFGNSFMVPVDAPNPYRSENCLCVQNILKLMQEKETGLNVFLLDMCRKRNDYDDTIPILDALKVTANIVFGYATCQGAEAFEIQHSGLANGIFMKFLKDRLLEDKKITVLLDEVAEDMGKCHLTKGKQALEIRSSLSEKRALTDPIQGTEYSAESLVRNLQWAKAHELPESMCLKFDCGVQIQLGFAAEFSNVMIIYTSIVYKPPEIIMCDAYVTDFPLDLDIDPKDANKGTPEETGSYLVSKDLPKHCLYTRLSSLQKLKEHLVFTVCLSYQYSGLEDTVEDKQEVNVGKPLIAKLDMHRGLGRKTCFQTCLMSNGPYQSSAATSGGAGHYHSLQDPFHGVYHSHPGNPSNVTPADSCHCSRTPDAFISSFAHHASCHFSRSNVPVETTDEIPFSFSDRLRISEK
EXPERIMENT NOTES: Intracellular MALT1 protease activity detection (BCL-10 ELISA in TMD8 cells)
TEST PARAMETERS: undigested BCL-10 by ELISA, 30 min compound then 2 h stimulation cocktail, read-out: Bcl10 TMD8 IC50
MEASURED QUANTITY: IC50 (nM)

Use the examples below as a reference point.
O=C(Nc1cnc(-n2nccn2)c(C(F)F)c1)c1cnn(-c2ccc3c4c(cccc24)C(=O)N3)c1C(F)(F)F
73
O=C(Nc1ccnc(C(F)(F)F)c1)c1cnn(-c2ccc3c4c(cccc24)C(=O)N3)c1C(F)(F)F [Example 3]
83

P = O=C(Nc1cnc(-n2nccn2)c(Cl)c1)c1cnn(-c2ccc3c4c(cccc24)C(=O)N3)c1C(F)(F)F
Q = O=C(Nc1cnc(-n2nccn2)c(C(F)(F)F)c1)c1cnn(-c2cnc3c4c(cccc24)C(=O)N3)c1C1CC1
Smaller IC50 value? Options are P and Q API: response body contains the label of the selected item. P
